molecular target: PfATP4 (Plasmodium falciparum); construct: gene ATP4; native PfATP4 in P. falciparum membrane preparations (3D7); test: cipargamin-sensitive Na+-dependent ATPase activity (Pi release) in parasite membranes; resistance mutation S374R; type: biochemical

{"columns": ["entrySmiles", "testSystem", "IC50"],
 "data": [
  ["CCC(CC)Nc1nc(C)c(C#N)c2ccccc12", "PfATP4 (Plasmodium falciparum)", "52 nM"]
]}

---

molecular target: PfATP4 (Plasmodium falciparum); construct: gene ATP4; native PfATP4 in P. falciparum membrane preparations (3D7); experiment: cipargamin-sensitive Na+-dependent ATPase activity (Pi release) in parasite membranes; assay type: biochemical
pIC50: −log10 of the molar value.
observedProperty: pIC50

{"columns": ["entrySmiles", "observedProperty", "observedMeasurement"],
 "data": [
  ["Cc1nc(N[C@@H](C)c2ccccc2)c2ccccc2c1C#N", "pIC50", 7.21]
]}

---

biological target: PfATP4 (Plasmodium falciparum, UniProt A0A143ZZK9, S374R); construct: PfATP4 S374R in membranes from B7 parasites; experiment: cipargamin-sensitive Na+-dependent ATPase activity (Pi release) in membranes of resistant parasites
Sequence (A0A143ZZK9 whole entry): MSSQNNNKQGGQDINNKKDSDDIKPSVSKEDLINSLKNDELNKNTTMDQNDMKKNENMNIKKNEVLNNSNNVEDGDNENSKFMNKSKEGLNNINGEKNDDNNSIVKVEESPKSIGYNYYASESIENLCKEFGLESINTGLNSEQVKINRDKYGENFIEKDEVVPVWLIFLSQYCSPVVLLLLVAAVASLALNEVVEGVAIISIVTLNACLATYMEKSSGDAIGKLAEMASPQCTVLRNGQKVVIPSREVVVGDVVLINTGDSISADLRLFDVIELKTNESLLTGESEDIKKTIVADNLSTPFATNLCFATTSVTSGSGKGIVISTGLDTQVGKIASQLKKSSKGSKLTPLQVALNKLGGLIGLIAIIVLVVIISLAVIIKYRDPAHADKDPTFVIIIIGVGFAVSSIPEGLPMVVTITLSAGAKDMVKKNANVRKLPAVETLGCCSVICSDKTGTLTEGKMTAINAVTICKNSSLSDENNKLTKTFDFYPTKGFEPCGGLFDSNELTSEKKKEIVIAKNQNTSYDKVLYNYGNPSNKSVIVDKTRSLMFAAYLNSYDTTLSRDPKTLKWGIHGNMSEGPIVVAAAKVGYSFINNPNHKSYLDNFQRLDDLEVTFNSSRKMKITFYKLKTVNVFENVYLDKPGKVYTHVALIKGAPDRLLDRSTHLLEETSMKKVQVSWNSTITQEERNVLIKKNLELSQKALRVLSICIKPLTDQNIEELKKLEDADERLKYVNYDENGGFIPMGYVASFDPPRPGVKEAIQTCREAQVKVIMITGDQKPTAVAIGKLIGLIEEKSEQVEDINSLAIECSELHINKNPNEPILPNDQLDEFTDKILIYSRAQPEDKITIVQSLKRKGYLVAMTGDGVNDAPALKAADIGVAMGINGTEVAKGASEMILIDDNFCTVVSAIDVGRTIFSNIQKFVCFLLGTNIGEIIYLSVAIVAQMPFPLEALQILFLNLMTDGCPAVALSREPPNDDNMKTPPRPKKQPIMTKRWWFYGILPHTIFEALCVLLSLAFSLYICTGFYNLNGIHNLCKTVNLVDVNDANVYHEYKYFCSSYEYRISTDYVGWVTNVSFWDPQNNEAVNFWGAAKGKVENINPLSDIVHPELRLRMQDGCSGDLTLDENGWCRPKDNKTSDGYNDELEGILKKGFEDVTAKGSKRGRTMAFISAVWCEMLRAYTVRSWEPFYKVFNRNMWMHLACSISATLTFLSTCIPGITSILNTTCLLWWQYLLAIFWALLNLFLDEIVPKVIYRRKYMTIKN
pIC50: −log10 of the molar value.

{"columns": ["entrySmiles", "pIC50"],
 "data": [
  ["CCC(CC)Nc1nc(C)c(C#N)c2ccccc12", 6.37]
]}

All values here come from paper PMC6635429.
